details: artificial membrane
Description: Affinity to immobilized artificial membrane by reversed phase HPLC
outcomeMeasure: logD IAM
Give the value as a plain number.

INPUT: Identify measured logD IAM corresponding to CCCCc1oc2ccccc2c1C(=O)c1cc(I)c(OCCN2CCOCC2)c(I)c1
OUTPUT: 3.36

INPUT: Identify measured logD IAM corresponding to CCCCc1oc2ccccc2c1C(=O)c1cc(I)c(OCCN2CCCCC2)c(I)c1
OUTPUT: 4.28

INPUT: Identify measured logD IAM corresponding to CCCCc1oc2ccccc2c1C(=O)c1cc(I)c(OCCN(C)C)c(I)c1
OUTPUT: 3.64

INPUT: Identify measured logD IAM corresponding to CCCCc1oc2ccccc2c1C(=O)c1cc(I)c(OCCN(C(C)C)C(C)C)c(I)c1
OUTPUT: 4.58

INPUT: Identify measured logD IAM corresponding to CCCCc1oc2ccccc2c1C(=O)c1cc(I)c(OCCN2CCCC2)c(I)c1
OUTPUT: 4.23

INPUT: Identify measured logD IAM corresponding to CCCCc1oc2ccccc2c1C(=O)c1cc(I)c(OCCCN(C)C)c(I)c1
OUTPUT: 3.56
